// provenance: patent US20240294551A1

Target or test system: GDP-bound KRAS protein (aa 1-169), containing both G12D and C118A amino acid substitutions (Homo sapiens (Human), UniProt P01116, C118A/G12D)
Sequence (P01116 other isoform, or with tags, fused parts or gaps G12D/C118A): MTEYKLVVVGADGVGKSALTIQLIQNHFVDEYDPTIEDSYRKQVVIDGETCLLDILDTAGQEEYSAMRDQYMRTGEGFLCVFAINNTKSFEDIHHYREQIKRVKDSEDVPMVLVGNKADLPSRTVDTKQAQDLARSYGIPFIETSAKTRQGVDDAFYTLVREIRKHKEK
Experimental protocol: KRAS G12D Coupled Nucleotide Exchange Assay
Format: biochemical
Stated conditions: read-out: KRAS G12D Coupled Exchange IC50

| Molecule | IC50 |
| --- | --- |
| Cc1cc2[nH]ncc2c2c1CC(C)COC(=O)O[C@@H]1CCCN(C1)c1nc(OC[C@@]34CCCN3C[C@H](F)C4)nc3c(F)c-2ncc13 (stereo partly shown) | 11 nM |
| O=C1OCCc2c(Cl)cc3[nH]ncc3c2-c2ncc3c(nc(OC[C@@]45CCCN4C[C@H](F)C5)nc3c2F)N2CCOC[C@]3(C2)C[C@H](C3)O1 | 3 nM |
| Cc1cc2[nH]ncc2c2c1C[C@H](C)COC(=O)O[C@@H]1CCCN(C1)c1nc(OC[C@@]34CCCN3C[C@H](F)C4)nc3c(F)c-2ncc13 (single isomer, unassigned) | 12 nM |
| Cc1cc2[nH]ncc2c2c1CCCOC(=O)O[C@@H]1COCCN(C1)c1nc(OC[C@@]34CCCN3C[C@H](F)C4)nc3c(F)c-2ncc13 | 1 nM |
| O=C1OCCCc2c(Cl)cc3[nH]ncc3c2-c2cc3nc(OC[C@@]45CCCN4C[C@H](F)C5)nc(c3cn2)N2CCOC[C@H](C2)O1 | 2 nM |
| O=S1(=O)CCCCc2c(Cl)cc3[nH]ncc3c2-c2ncc3c(nc(OC[C@@]45CCCN4C[C@H](F)C5)nc3c2F)N2CCC[C@H](C2)C1 | 63 nM |
| O=C1CCCCc2c(Cl)cc3[nH]ncc3c2-c2ncc3c(nc(OC[C@@]45CCCN4C[C@H](F)C5)nc3c2F)N2C[C@@H](O)C[C@H](C2)N1 (racemic) | 3 nM |
| O=C1COCCc2c(Cl)cc3[nH]ncc3c2-c2ncc3c(nc(OC[C@@]45CCCN4C[C@H](F)C5)nc3c2F)N2CC[C@H]3CCN1[C@H]3C2 | 2 nM |
| Fc1c2ncc3c(nc(OC[C@@]45CCCN4C[C@H](F)C5)nc13)N1CC(COCCCCc3c(Cl)cc4[nH]ncc4c3-2)CC2(CC2)C1 (stereo partly shown) | 8 nM |
| O=C1OCCCc2c(Cl)cc3[nH]ncc3c2-c2ncc3c(nc(OC[C@@]45CCCN4C[C@H](F)C5)nc3c2F)N2CCCC[C@](CF)(C2)O1 | 1 nM |
| C[C@]12C[C@]3(CN(CCO3)c3nc(OC[C@@]45CCCN4C[C@H](F)C5)nc4c(F)c(ncc34)-c3c(c(Cl)cc4[nH]ncc34)CCOC(=O)O1)C2 | 156 nM |
| O=C1CCCCc2c(Cl)cc3[nH]ncc3c2-c2ncc3c(nc(OC[C@@]45CCCN4C[C@H](F)C5)nc3c2F)N2CCC[C@H](C2)O1 [Example 36, bis(2,2,2-trifluoroacetate)] | 1 nM |
| O=C1OCCc2c(F)ccc3cc(O)cc(c23)-c2ncc3c(nc(OC[C@@]45CCCN4C[C@H](F)C5)nc3c2F)N2CCOC[C@H](C2)O1 | 1 nM |
| O=C1OCCCc2c(Cl)cc3[nH]ncc3c2-c2ncc3c(nc(OC[C@@]45CCCN4C[C@H](F)C5)nc3c2F)N2CCCC[C@H](C2)O1 | 1 nM |
| C[C@@]12CCCCN(C1)c1nc(OC[C@@]34CCCN3C[C@H](F)C4)nc3c(F)c(ncc13)-c1c(c(Cl)cc3[nH]ncc13)CCC[C@H](F)C(=O)N2 (mixture of isomers) | 2 nM |
| O=C1OCCc2c(Cl)cc3[nH]ncc3c2-c2ncc3c(nc(OC[C@@]45CCCN4C[C@H](F)C5)nc3c2F)N2CCC[C@@H](CO1)C2 | 1 nM |
| CN1CCC[C@H]1COc1nc2c3cnc(c(F)c3n1)-c1c(c(Cl)cc3[nH]ncc13)CCCOC(=O)O[C@@]1(C)COCCN2C1 | 689 nM |
| Fc1c2ncc3c(nc(OC[C@@]45CCCN4C[C@H](F)C5)nc13)N1CCOC[C@@H](C1)c1cnn(n1)CCCc1c(Cl)cc3[nH]ncc3c1-2 | 5980 nM |
| O=C1N[C@@H]2CCCCN(C2)c2nc(OC[C@@]34CCCN3C[C@H](F)C4)nc3c(F)c(ncc23)-c2c(c(Cl)cc3[nH]ncc23)CCCC1F (mixture of isomers) | 4 nM |
| Cc1cc2[nH]ncc2c2c1CCOC(=O)OC1CC3(CCCN(C3)c3nc(OC[C@@H]4CCCN4C)nc4c(F)c-2ncc34)C1 | 6 nM |
| O=C1OCC[C@@H]2CCc3cc4[nH]ncc4c(c32)-c2ncc3c(nc(OC[C@@]45CCCN4C[C@H](F)C5)nc3c2F)N2CCOC[C@H](C2)O1 | 2 nM |
| Cc1cc2[nH]ncc2c2c1CCCOC(=O)O[C@H]1CN(CC[C@H]1F)c1nc(OC[C@@]34CCCN3C[C@H](F)C4)nc3c(F)c-2ncc13 (racemic) | 5 nM |

* * *

Target or test system: His-tagged KRAS G12D protein (Homo sapiens (Human), UniProt P01116, G12D)
Sequence (P01116 other isoform, or with tags, fused parts or gaps G12D): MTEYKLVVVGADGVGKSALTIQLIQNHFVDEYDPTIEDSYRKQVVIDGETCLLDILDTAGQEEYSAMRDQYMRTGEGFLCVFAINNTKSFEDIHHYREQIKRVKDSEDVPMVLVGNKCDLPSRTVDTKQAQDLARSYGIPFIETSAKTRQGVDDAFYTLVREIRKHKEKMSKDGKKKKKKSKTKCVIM
Experimental protocol: KRAS G12D TR-FRET Assay
Type: binding
Stated conditions: read-out: KRAS G12D Binding IC50
Measured IC50 of individual entries

| Compound | Value unit | IC50 |
| --- | --- | --- |
| Fc1c2ncc3c(nc(OC[C@@]45CCCN4C[C@H](F)C5)nc13)N1CCOC[C@]3(C1)C[C@H](C3)OCCCCc1c(Cl)cc3[nH]ncc3c1-2 | nM | 38 |
| O=C1OCCCc2c(Cl)cc3[nH]ncc3c2-c2ccc3c(nc(OC[C@@]45CCCN4C[C@H](F)C5)nc3c2F)N2CCOC[C@H](C2)O1 | nM | 3 |
| O=C1OCCCc2c(Cl)cc3[nH]ncc3c2-c2ncc3c(nc(OC[C@@]45CCCN4C[C@H](F)C5)nc3c2F)N2CCOC[C@]3(C2)C[C@@H](C3)O1 | nM | 4 |
| C[C@@H]1C[C@@H](COc2nc3c4cnc(c(F)c4n2)-c2c(c(Cl)cc4[nH]ncc24)CCCOC(=O)O[C@@H]2COCCN3C2)N(C)C1 | nM | 5 |
| Fc1c2ncc3c(nc(OC[C@@]45CCCN4C[C@H](F)C5)nc13)N1CCCC(C1)c1cnn(n1)CCCc1c(Cl)cc3[nH]ncc3c1-2 (stereo partly drawn) | nM | 7 |
| CN(C)CC1(COc2nc3c4cnc(c(F)c4n2)-c2c(c(Cl)cc4[nH]ncc24)CCCCC(=O)N2CC[C@@H]4CCN3C[C@@H]42)CC1 | nM | 7 |

* * *

Target or test system: His-tagged KRAS G12D protein (Homo sapiens (Human), UniProt P01116, G12D)
Experimental protocol: KRAS G12D TR-FRET Assay
Format: binding
Stated conditions: read-out: KRAS G12D Binding IC50
Method: Compounds of interest were prepared in a dose-response titration in DMSO, and 80 nL were added via Labcyte Echo to each well of a 384-well plate (Perkin Elmer 6008280). […] Plates were read using PerkinElmer EnVision (ex: 320 nm, em1: 665 nm, em2: 615 nm) and em1/em2 data was used to generate curve fits using a 4-parameter logistic model to calculate IC50 values.
pIC50: −log10 of the molar value.
Kind request: treat 8 as inclusive, so pIC50 at 8 or higher is 1 (yes), anything lower is 0 (no).

| Compound | Label class |
| --- | --- |
| Cc1cc2[nH]ncc2c2c1CCCCOC(=O)[C@@H]1CCCN(C1)c1nc(OC[C@@]34CCCN3C[C@H](F)C4)nc3c(F)c-2ncc13 | 0 (no) |
| CN1C(=O)OCCCc2c(Cl)cc3[nH]ncc3c2-c2ncc3c(nc(OC[C@@]45CCCN4C[C@H](F)C5)nc3c2F)N2C[C@@H](O)C[C@@H]1C2 | 0 (no) |
| Fc1c2ncc3c(nc(OC[C@@]45CCCN4C[C@H](F)C5)nc13)N1CCCCC(COCCCCc3c(Cl)cc4[nH]ncc4c3-2)C1 (stereo partly drawn) | 1 (yes) |
| O=C1OCCc2c(Cl)cc3[nH]ncc3c2-c2ncc3c(nc(OC[C@@]45CCCN4C[C@H](F)C5)nc3c2F)N2CCC[C@]3(C2)C[C@H](C3)O1 | 1 (yes) |

* * *

Target or test system: His-tagged KRAS G12D protein (Homo sapiens (Human), UniProt P01116, G12D)
Experimental protocol: KRAS G12D TR-FRET Assay
Type: binding
Stated conditions: read-out: KRAS G12D Binding IC50
Criterion: IC50 strictly less than 30 nM. Met: Satisfied. Not met: Not satisfied.

| Compound | Target or test system | Label class |
| --- | --- | --- |
| O=C1OCCc2c(Cl)cc3[nH]ncc3c2-c2ncc3c(nc(OC[C@@]45CCCN4C[C@H](F)C5)nc3c2F)N2CCO[C@@H](CO1)C2 | His-tagged KRAS G12D protein (Homo sapiens (Human), UniProt P01116, G12D) | Satisfied |
| O=C1OC[C@@H]2C[C@@H]2c2c(Cl)cc3[nH]ncc3c2-c2ncc3c(nc(OC[C@@]45CCCN4C[C@H](F)C5)nc3c2F)N2CCC[C@H](C2)O1 [Example 45, bis(2,2,2-trifluoroacetate)] | His-tagged KRAS G12D protein (Homo sapiens (Human), UniProt P01116, G12D) | Satisfied |
| O=C1CCCCc2c(Cl)cc3[nH]ncc3c2-c2ncc3c(nc(OC[C@@]45CCCN4C[C@H](F)C5)nc3c2F)N2C[C@H](O)C[C@@H](C2)N1 (racemic) | His-tagged KRAS G12D protein (Homo sapiens (Human), UniProt P01116, G12D) | Not satisfied |
| Cc1cc2[nH]ncc2c2c1CCOC(=O)O[C@H]1C[C@@]3(CCCN(C3)c3nc(OC[C@@H]4C[C@@H](F)CN4C)nc4c(F)c-2ncc34)C1 | His-tagged KRAS G12D protein (Homo sapiens (Human), UniProt P01116, G12D) | Satisfied |
